ASSAY_NAME: self-splicing fitness, log relative to wild type (ln ratio); higher = more splicing; Tetrahymena group I intron in knt gene, E. coli kanamycin selection, DiMSum; sequences stand for … in CUCUCU…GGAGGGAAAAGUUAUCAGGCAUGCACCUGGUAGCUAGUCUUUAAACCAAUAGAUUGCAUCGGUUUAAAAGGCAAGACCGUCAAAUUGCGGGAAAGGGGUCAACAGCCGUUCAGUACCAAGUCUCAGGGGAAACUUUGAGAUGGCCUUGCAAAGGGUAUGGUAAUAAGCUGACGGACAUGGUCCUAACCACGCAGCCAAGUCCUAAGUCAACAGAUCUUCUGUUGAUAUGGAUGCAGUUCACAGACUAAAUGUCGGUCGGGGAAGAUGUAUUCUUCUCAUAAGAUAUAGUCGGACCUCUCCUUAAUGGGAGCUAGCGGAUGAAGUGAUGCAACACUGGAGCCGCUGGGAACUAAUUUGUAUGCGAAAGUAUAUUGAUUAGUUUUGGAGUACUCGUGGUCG;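 further: selection with 25 µg/mL kanamycin versus none on LB agar overnight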
RECORDED_CONDITIONS: 30 °C
ATTRIBUTE_MEASURED: self-splicing fitness (ln)

# RECORD_SEQUENCE, RECORDED_RESULT
records = [
    ("UAAAAGCAAUAUUACGAAUC", -4.16),
    ("CCAAAGCAAUAUUACGUUGU", -3.77),
    ("UCUCAGCAAUAUUACGAGCA", -0.507),
]

Answer for every listed entry: what is its self-splicing fitness (ln)? The entries follow.
1. CCUAAGCAAUAUUACGGGAA
2. GUUGAGCAAUAUUACGUACG
3. CGGUAGCAAUAUUACGAAAG
4. CGUCAGCAAUAUUACGCGCG
5. GUAUAGCAAUAUUACGAUAU
6. UUAUAGCAAUAUUACGGCUU

-3.52
-2.57
-0.203
-4.06
-2.87
-1.99

Answer for every listed entry: what is its self-splicing fitness (ln)? The entries follow.
1. GCUAAGCAAUAUUACGUAGG
2. UGGCAGCAAUAUUACGUCCG
3. AAAAAGCAAUAUUACGUCAA
4. AUAAAGCAAUAUUACGGCCU
5. GACUAGCAAUAUUACGCAAG

1. -1.34
2. -0.782
3. -1.8
4. 0.372
5. -4.58

Answer for every listed entry: what is its self-splicing fitness (ln)? The entries follow.
1. GUUUAGCAAUAUUACGUACG
2. CCAGAGCAAUAUUACGGUGG
3. AAAAAGCAAUAUUACGGAGA
4. CGAGAGCAAUAUUACGAUCG
5. ACUCAGCAAUAUUACGACAA
6. GGUUAGCAAUAUUACGCCAA
7. CGCUAGCAAUAUUACGGGCC
8. UGCUAGCAAUAUUACGUUAA

[-2.01, -3.31, -3.49, -2.87, -0.977, -1.42, -2.29, -2.54]

Answer for every listed entry: what is its self-splicing fitness (ln)? The entries follow.
1. AGUUAGCAAUAUUACGCGAC
2. CCACAGCAAUAUUACGGCGA
3. CGACAGCAAUAUUACGAGUC
4. UCGGAGCAAUAUUACGUUUU
5. UGCCAGCAAUAUUACGAAGU
6. AAGCAGCAAUAUUACGUCUA

[-2.88, -3.36, -4.97, -3.91, -2.88, -1]
